system: HT29 colon; assay: NCI-60 one-dose screen, 48 h (100 = growth as untreated, 0 = no growth, -100 = all killed); settings: 10 µM unless noted
This is part of a sample that, as a whole, favours compounds with a hit. Of some 83,000 tested, about 20% had one in any assay.
// growth lookup, one value per entry
Provide only the numeric value, understood in %.

// known answers, use as guide
| smiles | growth [%] |
| --- | --- |
| O=C(c1ccc(F)c(Cl)c1)N1c2ccccc2Sc2ccccc21 | 36.2 |
| Cc1cccc(N2CCN(C(=S)c3ccc4c(c3)OCO4)CC2)c1 | 6.38 |
| Cc1cc(F)ccc1S(=O)(=O)Nc1cc(-c2c(O)ccc3ccccc23)c(O)c2ccccc12 | 52.8 |

Note: attention shifts to another entry.
Give recorded growth. "COc1ccc(OC)c(-c2cn3nc(-c4c[nH]c5ccc(Br)cc45)sc3n2)c1"
10
